Entries and their measured pKi follow.
Target: orexin-2 receptor (Homo sapiens, UniProt O43614)
Sequence (O43614 1-444): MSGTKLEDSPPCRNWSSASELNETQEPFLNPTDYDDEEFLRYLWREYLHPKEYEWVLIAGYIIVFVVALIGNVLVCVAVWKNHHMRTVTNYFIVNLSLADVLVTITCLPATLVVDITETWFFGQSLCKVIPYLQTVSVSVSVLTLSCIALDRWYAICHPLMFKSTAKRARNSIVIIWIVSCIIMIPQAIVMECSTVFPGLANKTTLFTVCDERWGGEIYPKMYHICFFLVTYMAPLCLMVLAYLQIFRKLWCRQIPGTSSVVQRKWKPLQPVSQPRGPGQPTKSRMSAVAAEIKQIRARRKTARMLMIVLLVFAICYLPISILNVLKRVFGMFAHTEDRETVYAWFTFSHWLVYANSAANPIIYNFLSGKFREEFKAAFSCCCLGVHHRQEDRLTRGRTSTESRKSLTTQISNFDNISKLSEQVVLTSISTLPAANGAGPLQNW
Test: Orexin radioligand binding assay (125I-orexin A, adherent recombinant cells)
Conditions: 125I-orexin A displacement, recombinant CHO-K1 or HEK-293 cells expressing the orexin receptor
Answer as the number alone; pKi is minus log10 of concentration in mol/L.

Chemical Structure | Obs Value
CC1(C)OC[C@H](NC(=O)Nc2ccc(Cl)cc2Cl)[C@H](c2ccccc2)O1 | 7.82
CC1(C)OC[C@H](NC(=O)Nc2ccccc2-c2ccccc2)[C@H](c2ccccc2)O1 | 7.25
CC(C)c1ccccc1NC(=O)N[C@H]1COC(C)(C)O[C@H]1c1ccccc1 | 5.54

// moving on: another record for pKi
Query block: Give the measured pKi of `Cc1cc(NC(=O)N[C@H]2COC(C)(C)O[C@H]2c2ccccc2)ccc1Br` .
Result block: 7.06

###

Target: orexin-2 receptor (Homo sapiens, UniProt O43614)
Assay: Orexin radioligand binding assay (125I-orexin A, adherent recombinant cells)
Details: 125I-orexin A displacement, recombinant CHO-K1 or HEK-293 cells expressing the orexin receptor
Entries and their measured pKi follow.
Answer as the number alone; pKi is minus log10 of concentration in mol/L.

Record excerpt, results attached:
Compound | Tested Target | pKi
O=C(Nc1ccc(Br)cc1Br)N[C@H]1COC2(CCCCC2)O[C@H]1c1ccccc1 [Example 25] | orexin-2 receptor (Homo sapiens, UniProt O43614) | 6.15
Cc1ccc(/N=C(\NC#N)N[C@H]2COC(C)(C)O[C@H]2c2ccccc2)c(Br)c1 [Example 27] | orexin-2 receptor (Homo sapiens, UniProt O43614) | 6.00

// moving on: another record for pKi
Query block: Give the measured pKi of CC1(C)OC[C@H](NC(=O)Nc2ccccc2C(=O)O)[C@H](c2ccccc2)O1 [Example 41] .
Result block: 6.15
